Numbers sourced from the supplement of paper PMC4466140.

target-of-assay: SpLsb4
protocol-notes: SPOT peptide array binding signal intensity (averaged, normalized) (arbitrary units (background-subtracted, floor 0; scale differs between SH3 domains)); higher = stronger binding of the SH3 domain to the peptide
Label N if SPOT peptide array binding signal intensity falls below 600; label Y in every other case.

Answered cases to consult:
>>> answer_label("RKNRAPPQRPRFNRD")
"Y"
>>> answer_label("QQNRPLPQLPNRNNR")
"Y"
>>> answer_label("RAPPPVPKKPSSRIA")
"Y"
>>> answer_label("YVRRRPRVRLEPLLS")
"N"
>>> answer_label("KRRTSLFPWLHKPGI")
"N"

[Q] Has NVLRKILEIPLHSFS a recorded SPOT peptide array binding signal intensity greater than or equal to 600?
[A] N
